studySystem: Estrogen receptor (Homo sapiens)
testSummary: ERalpha ligand binders by competition, primary screen, cell-based, Cos7 ERalpha-GFP, flow cytometry (AID 1211);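 further: 0% = DMSO vehicle wells and 100% = no E2-Alexa633 signal left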
conditionSummary: fluorescent ligand competition, binding inhibition, at 0.1 µM, stronger effect = higher value
Recorded inhibition of ligand binding, one value per entry.
Numbers only; they are read as %.

Known results for compounds:
- CCn1c(=NC(=O)c2ccc(N3C(=O)CCC3=O)cc2)sc2c(OC)ccc(OC)c21: 32
- Nc1ccc(-c2cc(-c3cccc(N)c3)nc(-c3ccccc3)n2)cc1: 2
- CC(=O)c1ccc(NC(=S)N2CCCC(CO)C2)cc1 (stereo not given): 1
- CCc1ccc2[nH]c(=O)c(CN(Cc3ccc4c(c3)OCO4)C(=O)c3ccco3)cc2c1: 62
- Cc1ccnc(NS(=O)(=O)c2ccc(NC(=O)c3cc(-c4ccc(Br)cc4)nc4ccccc34)cc2)n1: 47

Here is the next item to consider.
# inhibition of ligand binding lookup, item COc1ccc(C2C=C(c3ccc(Cl)cc3)Nc3nc(NC(C)=O)nn32)cc1 (stereo not given) 22

###

studySystem: Estrogen receptor (Homo sapiens) (UniProt P03372)
Sequence (P03372 whole entry, looked up): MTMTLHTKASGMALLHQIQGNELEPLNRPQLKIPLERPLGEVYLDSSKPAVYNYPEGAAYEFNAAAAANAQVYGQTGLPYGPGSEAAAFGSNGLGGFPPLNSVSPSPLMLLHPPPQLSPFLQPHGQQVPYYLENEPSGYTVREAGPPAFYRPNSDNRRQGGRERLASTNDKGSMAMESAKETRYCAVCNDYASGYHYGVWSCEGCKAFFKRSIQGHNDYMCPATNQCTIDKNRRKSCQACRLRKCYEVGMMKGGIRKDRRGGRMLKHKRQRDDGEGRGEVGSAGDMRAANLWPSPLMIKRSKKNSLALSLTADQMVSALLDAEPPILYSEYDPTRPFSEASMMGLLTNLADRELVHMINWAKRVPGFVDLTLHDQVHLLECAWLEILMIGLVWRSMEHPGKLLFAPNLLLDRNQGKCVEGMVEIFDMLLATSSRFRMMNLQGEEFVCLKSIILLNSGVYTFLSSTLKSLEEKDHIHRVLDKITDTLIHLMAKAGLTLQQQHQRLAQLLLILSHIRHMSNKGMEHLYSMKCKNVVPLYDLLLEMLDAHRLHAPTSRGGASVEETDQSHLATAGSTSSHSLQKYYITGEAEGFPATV
testSummary: ERalpha ligand binders by competition, primary screen, cell-based, Cos7 ERalpha-GFP, flow cytometry (AID 1211);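 further: 0% = DMSO vehicle wells and 100% = no E2-Alexa633 signal left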
conditionSummary: fluorescent ligand competition, binding inhibition, at 0.1 µM, stronger effect = higher value
# binarize inhibition of ligand binding: threshold 30% inclusive, high side 1.0, low side 0.0

# count of solved cases: 8
- Oc1ccccc1-c1nnc(SCCN2CCOCC2)n1Cc1ccccc1: 1.0
- CN(/N=C/c1cccnc1)c1cnn(-c2ccc(F)c(Cl)c2)c(=O)c1Cl: 0.0
- CCOC(=O)CSc1nn(C)c(=S)s1: 1.0
- Cc1cc([N+](=O)[O-])c2c(c1C)C1C=CCC1C(c1ccccn1)N2 (stereo unspecified): 0.0
- CC1(C)CC(=O)C2=C(C1)OC(c1ccc(O)cc1)C(C#N)=C2N (stereo unspecified): 0.0
- Oc1c(Cl)cc(Cl)cc1Sc1cc(Cl)cc(Cl)c1O: 0.0
- Cc1nc2cc(-c3ccsc3-n3c(C)ccc3C)[nH]n2c(=O)c1Cl: 1.0
- Cc1cc(=O)oc2c(CN3CCC(C)CC3)c(O)c(Cl)cc12: 0.0

Does the reported inhibition of ligand binding for CCN1CCN(Cc2c(O)c(Cl)cc3c(C)cc(=O)oc23)CC1 fall at or above the 30% mark? 0.0

One more compound: COc1ccc(N2C(=O)c3ccccc3NC2c2ccc(OC)c(COc3ccccn3)c2)cc1 (stereo unspecified) 0.0

###

studySystem: Estrogen receptor (Homo sapiens) (UniProt P03372)
testSummary: ERalpha ligand binders by competition, primary screen, cell-based, Cos7 ERalpha-GFP, flow cytometry (AID 1211);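 further: 0% = DMSO vehicle wells and 100% = no E2-Alexa633 signal left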
conditionSummary: fluorescent ligand competition, at 10 µM, stronger effect = higher value
assayMetric: inhibition of ligand binding (%)
Numbers only; they are read as %.

Known results for molecules:
* Clc1ccc2c(c1)[C@H]1OCC[C@H]1[C@@H](c1ccco1)N2 | 0
* COc1ccc(-c2nnc(SCC(=O)c3cc(C)n(Cc4cccs4)c3C)o2)cc1 | 35
* Oc1ccc(-c2[nH]nc(-c3ccccc3)c2-c2nc3ccccc3[nH]2)cc1 | 33
* COc1nc(-c2ccc(Cl)cc2)ccc1-c1noc(-c2ccco2)n1 | 57
* CCNC(=O)c1ccc2c(c1)C1C3CCC(C3)C1C(c1ccccc1)N2 (stereo unspecified) | 66

Notebook entry, Estrogen receptor (Homo sapiens) (UniProt P03372) assay: inhibition of ligand binding of Cc1cc(C)c(C(=O)COc2cccnc2[N+](=O)[O-])cc1C = ? 19

One more molecule: COc1cc([N+](=O)[O-])cc2c1NC(c1ccccc1Cl)C1CC=CC21 (stereo unspecified) 0

One more molecule: CC(C)(C)NC(=O)c1ccc2c(c1)C1C3CCC(C3)C1C(c1ccccc1)N2 (stereo unspecified) 70

One more molecule: CC1CCC2(C)c3[nH]c4ccccc4c3CCN2C1=O (stereo unspecified) 0

One more molecule: Cc1nc(-c2ccc(O)c(O)c2)cs1 17

One more molecule: COc1cc2c(cc1O)CC[n+]1cc3c(OC)c(OC)ccc3cc1-2 46
